Test: Aqueous solubility, 24 h shake, gravimetric
Assay type: physicochemical
Conditions: thermodynamic from solid; deionized water, shaken 24 h at 50° C.
reported_endpoint: solubility at 24 h
Quick note: unit goes after the number.

>>> print(df.to_string())
                                   molecule   reported_endpoint  endpoint_value
0  O=C(CSc1ccc(Br)cc1)Nc1cn(CCc2ccccc2)nc1C(=O)[O-].[Na+] [sodium salt]  solubility at 24 h      2400 µg/mL

Field: next molecule
Query :: Bench note: what solubility at 24 h did O=C(CSc1ccc(Br)cc1)Nc1cn(CCc2ccccc2)nc1C(=O)[O-].[K+] [potassium salt] show?
Result :: 16200 µg/mL
